System: 769-P
test: minimum viability across doses, drug + dasatinib, relative to DMSO (fraction); higher = less growth inhibition
runParameters: treatment: drug + dasatinib (fixed dose, not stated); 5 days

>  <molecule>
O=c1cc(-c2cccc3c2Sc2ccccc2S3)oc(N2CCOCC2)c1 + Cc1nc(Nc2ncc(C(=O)Nc3c(C)cccc3Cl)s2)cc(N2CCN(CCO)CC2)n1 [dasatinib]

>  <minimum viability across doses>
0.635

$$$$
>  <molecule>
Cc1nc(NC(=O)N2CCC[C@H]2C(N)=O)sc1-c1csc(C(C)(C)C)n1 [A66] + Cc1nc(Nc2ncc(C(=O)Nc3c(C)cccc3Cl)s2)cc(N2CCN(CCO)CC2)n1 [dasatinib]

>  <minimum viability across doses>
0.548

$$$$
>  <molecule>
COc1ncc(-c2ccc3nccc(-c4ccnnc4)c3c2)cc1NS(=O)(=O)c1ccc(F)cc1F + Cc1nc(Nc2ncc(C(=O)Nc3c(C)cccc3Cl)s2)cc(N2CCN(CCO)CC2)n1 [dasatinib]

>  <minimum viability across doses>
0.0228

$$$$
>  <molecule>
CN(C)c1ccc(-c2nc3c(N4CCN(CC(=O)Nc5nccs5)CC4)c(Cl)cnc3[nH]2)cc1 + Cc1nc(Nc2ncc(C(=O)Nc3c(C)cccc3Cl)s2)cc(N2CCN(CCO)CC2)n1 [dasatinib]

>  <minimum viability across doses>
0.307

$$$$
>  <molecule>
Cc1ccccc1-n1c(Cn2cnc3c(N)ncnc32)nc2cccc(C)c2c1=O + Cc1nc(Nc2ncc(C(=O)Nc3c(C)cccc3Cl)s2)cc(N2CCN(CCO)CC2)n1 [dasatinib]

>  <minimum viability across doses>
0.612

$$$$

* * *

System: 786-O
test: AUC of dose-response viability curve, drug + dasatinib, normalised to DMSO (arbitrary (AUC of normalised viability)); higher = less growth inhibition
runParameters: treatment: drug + dasatinib (fixed dose, not stated); 5 days
AUC of dose-response viability curve reference

>  <compound>
COc1cc2ncnc(Nc3ccc(F)c(Cl)c3)c2cc1OCCCN1CCOCC1 [Gefitinib (Iressa)] + Cc1nc(Nc2ncc(C(=O)Nc3c(C)cccc3Cl)s2)cc(N2CCN(CCO)CC2)n1

>  <assaySystem>
786-O

>  <AUC of dose-response viability curve>
2.56

$$$$
>  <compound>
S=C(NCc1ccc2c(c1)OCO2)N1CCN(c2ncnc3c2oc2ccccc23)CC1 [Amuvatinib (MP-470)_R2] + Cc1nc(Nc2ncc(C(=O)Nc3c(C)cccc3Cl)s2)cc(N2CCN(CCO)CC2)n1

>  <assaySystem>
786-O

>  <AUC of dose-response viability curve>
1.87

$$$$
>  <compound>
CCCNC(=O)Nc1ccc(Oc2ncnc3cc(OC)c(OC)cc23)cc1Cl [KRN 633] + Cc1nc(Nc2ncc(C(=O)Nc3c(C)cccc3Cl)s2)cc(N2CCN(CCO)CC2)n1

>  <assaySystem>
786-O

>  <AUC of dose-response viability curve>
2.06

$$$$
>  <compound>
CCn1nnc2c(N3CCOCC3)nc(-c3ccc(NC(=O)Nc4ccc(C(=O)N5CCN(C)CC5)cc4)cc3)nc21 [PKI-402] + Cc1nc(Nc2ncc(C(=O)Nc3c(C)cccc3Cl)s2)cc(N2CCN(CCO)CC2)n1

>  <assaySystem>
786-O

>  <AUC of dose-response viability curve>
1.41

$$$$

* * *

Tested on: TK-10
test: AUC of dose-response viability curve, drug alone (arbitrary (AUC of normalised viability)); higher = less growth inhibition
runParameters: treatment: drug alone; 5 days
Note to self: use fulfilled only for AUC of dose-response viability curve readings below 3; a reading exactly at 3 still gets not fulfilled.

>  <molecule>
COC(=O)Nc1ccc(-c2nc(N3CCOCC3)c3cnn(C4CCN(Cc5cccnc5)CC4)c3n2)cc1 [WYE-687]

>  <labelValue>
fulfilled

$$$$
>  <molecule>
CC(C)n1nc(-c2ccc3oc(N)nc3c2)c2c(N)ncnc21 [INK 128]

>  <labelValue>
fulfilled

$$$$
>  <molecule>
Cn1cc(C2=C(c3cn(C4CCN(Cc5ccccn5)CC4)c4ccccc34)C(=O)NC2=O)c2ccccc21

>  <labelValue>
not fulfilled

$$$$
>  <molecule>
O=C(NC[C@H](O)CO)c1ccncc1Nc1ccc(I)cc1F

>  <labelValue>
fulfilled

$$$$
>  <molecule>
CC(C)n1nc(-c2cc3cc(O)ccc3[nH]2)c2c(N)ncnc21 [PP242]

>  <labelValue>
fulfilled

$$$$
>  <molecule>
Cn1cnc(-c2cc3nccc(Oc4ccc(NC(=S)NC(=O)Cc5ccccc5)cc4F)c3s2)c1 [MGCD-265]

>  <labelValue>
not fulfilled

$$$$
>  <molecule>
COc1cc(Nc2ncc(F)c(Nc3ccc4c(n3)NC(=O)C(C)(C)O4)n2)cc(OC)c1OC.O=S(=O)(O)c1ccccc1 [R406]

>  <labelValue>
fulfilled

$$$$
>  <molecule>
O=C1Nc2ccccc2/C1=C1/Nc2ccccc2C1=O [Indirubin]

>  <labelValue>
fulfilled

$$$$
>  <molecule>
NCC(=O)Nc1ccc(-n2nc(C(F)(F)F)cc2-c2ccc3c(ccc4ccccc43)c2)cc1

>  <labelValue>
fulfilled

$$$$
>  <molecule>
CCc1cc(Nc2nccc(-c3c(-c4ccc(OC)c(C(=O)Nc5c(F)cccc5F)c4)nc4ccccn34)n2)c(OC)cc1N1CCC(N2CCN(S(C)(=O)=O)CC2)CC1

>  <labelValue>
not fulfilled

$$$$
>  <molecule>
CNC(=O)c1c(F)cccc1Nc1nc(Nc2cc3c(cc2OC)CCN3C(=O)CN(C)C)nc2[nH]ccc12

>  <labelValue>
fulfilled

$$$$
>  <molecule>
Cc1[nH]c(/C=C2\C(=O)Nc3ccccc32)c(C)c1CCC(=O)O [TSU-68]

>  <labelValue>
not fulfilled

$$$$
>  <molecule>
CNC(=O)c1ccc(C)c(-n2c(C)cc(OCc3ccc(F)cc3F)c(Br)c2=O)c1

>  <labelValue>
fulfilled

$$$$
>  <molecule>
Nc1nc(NCCNc2ncc(-n3ccnc3)c(-c3ccc(Cl)cc3Cl)n2)ccc1[N+](=O)[O-]

>  <labelValue>
fulfilled

$$$$
